Test system: Hepatotoxicity
EXPERIMENTAL_PROTOCOL: FDA HLAED, liver enzyme composite activity
APPLIED_CONDITIONS: human
READOUT_TYPE: Composite Activity - Score

>>> observed_measurement("Nc1cc(Cl)c(N=C2NCCN2)c(Cl)c1 [APRACLONIDINE]")
"Inactive"
>>> observed_measurement("Cc1ncc2n1-c1ccc(Cl)cc1C(c1ccccc1F)=NC2 [MIDAZOLAM]")
"Inactive"
>>> observed_measurement("Fc1ccccc1C1=NCC(=S)N(CC(F)(F)F)c2ccc(Cl)cc21 [QUAZEPAM]")
"Inactive"
>>> observed_measurement("N[C@@H](C(=O)N[C@@H]1C(=O)N2C(C(=O)O)=C(Cl)CS[C@H]12)c1ccccc1 [CEFACLOR ANHYDROUS]")
"Inactive"
>>> observed_measurement("CCCCCc1cc(O)c2c(c1)OC(C)(C)[C@@H]1CCC(C)=C[C@@H]21 [DRONABINOL]")
"Inactive"
>>> observed_measurement("FC(F)OC(F)C(F)(F)F (centres undefined)")
"Inactive"
>>> observed_measurement("CC(C)(C)NCC(O)c1ccc(O)c(CO)n1 (centres undefined) [PIRBUTEROL]")
"Inactive"
>>> observed_measurement("CN(C)CC/C=C1/c2ccccc2COc2ccc(CC(=O)O)cc21 [OLOPATADINE]")
"Inactive"

====

Below, each entry is listed with its recorded GGT Increase - Index Value.
Tested on: Hepatotoxicity
EXPERIMENTAL_PROTOCOL: FDA HLAED, gamma-glutamyl transferase (GGT) increase
APPLIED_CONDITIONS: human
READOUT_TYPE: GGT Increase - Index Value

>>> observed_measurement("CNC(=C[N+](=O)[O-])NCCSCc1csc(CN(C)C)n1")
0.8
>>> observed_measurement("Cn1nnnc1SCC1=C(C(=O)[O-])N2C(=O)[C@@H](NC(=O)[C@H](OC=O)c3ccccc3)[C@H]2SC1.[Na+] [CEFAMANDOLE NAFATE]")
0
>>> observed_measurement("CN(C/C=C/C#CC(C)(C)C)Cc1cccc2ccccc12")
2.6
>>> observed_measurement("COc1ccc2cc(CCC(C)=O)ccc2c1")
0.5
>>> observed_measurement("CC1Cc2ccccc2N1NC(=O)c1ccc(Cl)c(S(N)(=O)=O)c1 (centres undefined) [INDAPAMIDE]")
0
>>> observed_measurement("C[C@@H]1O[C@@H]1P(=O)(O)O")
0
>>> observed_measurement("Cc1ccc(C)c(OCCCC(C)(C)C(=O)O)c1")
0
>>> observed_measurement("O=C(O)c1cc(-c2ccc(F)cc2F)ccc1O")
0
>>> observed_measurement("CCCC1O[C@@H]2C[C@H]3[C@@H]4CCC5=CC(=O)C=C[C@]5(C)[C@H]4[C@@H](O)C[C@]3(C)[C@]2(C(=O)CO)O1 (some centres undefined) [BUDESONIDE]")
0

====

System: Hepatotoxicity
EXPERIMENTAL_PROTOCOL: FDA HLAED, alkaline phosphatase increase
APPLIED_CONDITIONS: human
Below, each entry is listed with its recorded Alkaline Phosphatase Increase - Index Value.
READOUT_TYPE: Alkaline Phosphatase Increase - Index Value

>>> observed_measurement("CC[C@H]1OC(=O)[C@H](C)[C@@H](O[C@H]2C[C@@](C)(OC)[C@@H](O)[C@H](C)O2)[C@H](C)[C@@H](O[C@@H]2O[C@H](C)C[C@H](N(C)C)[C@H]2O)[C@](C)(O)C[C@@H](C)CN(C)[C@H](C)[C@@H](O)[C@]1(C)O [AZITHROMYCIN]")
1
>>> observed_measurement("CC(C)(C)NC[C@H](O)COc1ccccc1C1CCCC1 [PENBUTOLOL]")
0
>>> observed_measurement("Cc1ccc(Cl)c(Nc2ccccc2C(=O)O)c1Cl [MECLOFENAMIC ACID]")
0
>>> observed_measurement("FC(F)OC(Cl)C(F)(F)F (stereo not given) [ISOFLURANE]")
0.6
>>> observed_measurement("CNS(=O)(=O)Cc1ccc2[nH]cc(CCN(C)C)c2c1")
0.1
